Molecular target: T1, CH505.TF mutant gp120 M8 (HIV-1)
T1 construct: domain: gp120
Test: ELISA
Assign LogAUC to each entry below.
Give only the figure.

Query: Give the value of LogAUC reported for the following: CH236 (antibody, V domains shown, also called CH236_4A/293i) VH: QVQLVQSGAAVKRPGASVTISCRASGYTFTTYYIHWVRQAPGQRLELMGMIDPSRGRTDYAQKFQGRVTMSRDTSTSTLYMELRSLRPDDTALYYCVRNVGTEGSLLHYDYWGQGTLVTVSS VL: EIVLTQSPATLSVSPGERVTLSCRASQSVRNNLAWYRQKRGQAPRLLIYGASTRATGIPARFSGSGSGTEFTLTISSMQSEDFAVYYCQQYNNWWTFGQGTKVEIK
Reply: 0

Query: Report LogAUC, nothing else, for this binder: CH556 (antibody, V domains shown, also called CH235.11) VH: QVQLVQSGGTVKSPGTSVTLSCKTSGYNFIDYYIHWVRRAPGQRPELMGYIDPSHGRPDYEGKFRDRISLYRDTSTSVVYMDVRGLRLDDTALYYCVRGGGVEVSSNHYDHWGPGTMVFVSP VL: ETTLTQSPDTLSASPGERVTLSCRAAQSVGSQVAWFRHIRGQPPRLLISGASTRAAGVPARFSGSGSGTDFTLTISGMQSEDFAEYFCQQYHMWWTFGQGTRVDKN
Reply: 0.29

The reported numbers originate from patent US10450368.
